Measured pIC50 values are reported for all entries that follow.
# System: NLRP3
# PROTOCOL DESCRIPTION: IL-1β secretion assay in PMA-differentiated, LPS/nigericin-stimulated THP-1 cells (384-well, ELISA read-out)
# Assay type: cell-based, human
# CONDITION: Homo sapiens, THP-1, Table 4; IL-1β secretion, LPS/nigericin-stimulated THP-1 cells; read-out: IC50
pIC50: −log10 of the molar value.
ATTRIBUTE MEASURED: pIC50

[[record]]
entry_smiles = "O=C(CN1CC2(CC2)c2cc(Br)ccc2C1=O)Nc1ccc(-c2nnn[nH]2)cc1"
test_system = "NLRP3"
number = 4.63

[[record]]
entry_smiles = "O=C(CN1CC2(CC2)c2cc(Br)ccc2C1=O)Nc1nccc2nccn12"
test_system = "NLRP3"
number = 5.18

[[record]]
entry_smiles = "O=C(CN1CC2(CC2)c2c(ccc(C3CC3)c2F)C1=O)Nc1ncc(F)cn1"
test_system = "NLRP3"
number = 6.94

[[record]]
entry_smiles = "CS(=O)(=O)c1ccc(NC(=O)CN2CC3(CC3)c3cc(Br)ccc3C2=O)c(Cl)c1"
test_system = "NLRP3"
number = 5.09


====

# System: NLRP3
# PROTOCOL DESCRIPTION: IL-1β secretion assay in PMA-differentiated, LPS/nigericin-stimulated THP-1 cells (384-well, ELISA read-out)
# Format: cell-based, human
# CONDITION: Homo sapiens, THP-1, Table 4; IL-1β secretion, LPS/nigericin-stimulated THP-1 cells; read-out: IC50
ATTRIBUTE MEASURED: IC50 (µM)

[[record]]
compound = "O=C(CN1C[C@@]2(C[C@@H]2F)c2c(ccc(Br)c2F)C1=O)Nc1ncc(Cl)cn1 (single isomer, unassigned) [Example 222]"
number = 0.011

[[record]]
compound = "Cc1nc(NC(=O)CN2CC3(CC3)c3cc(Br)ccc3C2=O)ncc1F [Example 184]"
number = 0.651

[[record]]
compound = "O=C(CN1CC2(CC2)c2cc(Br)ccc2C1=O)Nc1ncc(C2CCC2)cn1 [Example 256]"
number = 0.395

[[record]]
compound = "O=C(CN1CC2(CC2)c2cc(Br)ccc2C1=O)Nc1ncc(C2=COCC2)cn1 [Example 424]"
number = 0.7

[[record]]
compound = "O=C(CN1CC2(CC2)c2cc(Br)ccc2C1=O)Nc1ccnn1-c1ccccc1 [Example 152]"
number = 21.6

[[record]]
compound = "O=C(CN1CC2(CC2)c2cc(Br)ccc2C1=O)Nc1ccc2c(c1)OC(F)(F)O2 [Example 157]"
number = 9.98

[[record]]
compound = "O=C(CN1C[C@]2(C[C@H]2F)c2cc(Br)ccc2C1=O)Nc1ncccn1 [Example 109]"
number = 0.036

[[record]]
compound = "O=C(CN1CC2(CC2)c2cc(Br)ccc2C1=O)N[C@@H]1CCCN(C2CCC2)C1 [Example 70]"
number = 0.191

[[record]]
compound = "CC(C)n1cnc(NC(=O)CN2CC3(CC3)c3cc(Br)ccc3C2=O)n1 [Example 421]"
number = 2.73

[[record]]
compound = "O=C(CN1CC2(CC2)c2cc(Br)ccc2C1=O)Nc1ncn(-c2ccccc2)n1 [Example 413]"
number = 2.02

[[record]]
compound = "O=C(CN1CC2(CC2)c2cc(Br)ccc2C1=O)Nc1ccc2ocnc2c1 [Example 173]"
number = 2.3

[[record]]
compound = "O=C(CN1CC2(CC2)c2nc(C3CC3)ccc2C1=O)Nc1ncc(F)cn1 [Example 311]"
number = 1.41

[[record]]
compound = "CC1(C)CN(CC(=O)Nc2ncc(F)cn2)C(=O)c2ccc(Br)cc21 [Example 178]"
number = 1.05

[[record]]
compound = "Cc1cnc(NC(=O)CN2C[C@]3(C[C@H]3F)c3cc(Br)ccc3C2=O)nc1 [Example 274]"
number = 0.023

[[record]]
compound = "O=C(CN1CC2(CC2)c2cc(Br)ccc2C1=O)Nc1ccc2cccnc2n1 [Example 199]"
number = 1.37

[[record]]
compound = "C#Cc1ccc2c(c1F)C1(CC1)CN(CC(=O)Nc1ncc(F)cn1)C2=O [Example 302]"
number = 0.539

[[record]]
compound = "Cn1cc(NC(=O)CN2CC3(CC3)c3cc(Br)ccc3C2=O)ncc1=O [Example 337]"
number = 7.47


Value source: patent US20230416205A1
